Target: human CCR6 (Homo sapiens, UniProt P51684)
Construct: expressed in transfected cells; host or cells: HEK-293
Assay: FLIPR assay (inhibition of CCL20-induced calcium signal)
Format: cell-based
Conditions: HEK-293 cells expressing human CCR6; mean values where determined several times; read-out: FLIPR IC50
observation_type: IC50 (nM)
The answer is to be given in nM; state only the numeric part.

Consider the following illustrative entries.
>>> obs_value("CC(C)c1ccc([C@](O)(c2cncc(C3CCN(c4ccccn4)CC3)c2)C2(C)CN(C)C2)cc1 [Example 315]")
23.6
>>> obs_value("CC(=O)N1CCC(COc2cncc([C@@](O)(c3ccc(C(C)C)cc3)C3(C)CN(C)C3)c2)CC1 [Example 669]")
62.1
>>> obs_value("CC(C)c1ccc([C@](O)(c2cncc(-c3noc(CCC#N)n3)c2)C2(C)CN(C)C2)cc1 [Example 499]")
53.8

Q. Give its IC50 value. Item: CC(C)c1ccc([C@](O)(c2cncc(-c3noc(CN4C(=O)CNC4=O)n3)c2)C2(C)CN(C)C2)cc1 [Example 486]
A. 287

Q. For Cc1cncc([C@@](O)(c2ccc(C(C)C)cc2)C2(C)CN(C)C2)c1 [Example 302] , what is its reported IC50?
A. 44.5

Q. Query: IC50; subject: CC(=O)N1CCC(c2nc(-c3cncc([C@@](O)(c4ccc(C(C)C)cc4)C4(C)CN(C(C)C)C4)c3)no2)CC1 [Example 578]
A. 97.2

Q. # IC50 lookup, item COCCC1CCN(c2cncc([C@@](O)(c3ccc(C(C)C)cc3)C3(C)CN(C)C3)c2)C1=O (stereo partly drawn) [Example 220]
A. 214

----------
Biological target: human CCR6 (Homo sapiens, UniProt P51684)
Construct: expressed in transfected cells; host or cells: HEK-293
Experiment: FLIPR assay (inhibition of CCL20-induced calcium signal)
Format: cell-based
Details: HEK-293 cells expressing human CCR6; mean values where determined several times; read-out: FLIPR IC50
observation_type: pIC50
Note on pIC50: it is the negative log10 of concentration, concentration in mol/L.

>>> obs_value("COCC1(Cc2nc(-c3cncc([C@@](O)(c4ccc(C(C)C)cc4)C4(C)CN(C)C4)c3)no2)CC1")
7.34
>>> obs_value("CC(C)c1ccc([C@](O)(c2cncc(-c3noc([C@@](C)(O)C(F)(F)F)n3)c2)C2(C)CN(C)C2)cc1")
7.70
>>> obs_value("CC(C)c1ccc([C@](O)(c2cncc(-c3noc(CC(C)(C)NC(=O)C4CC4)n3)c2)C2(C)CN(C)C2)cc1")
7.21
>>> obs_value("CC(C)c1ccc([C@](O)(c2cncc(C3CCN(C(=O)OC(C)(C)C)C3)c2)C2(C)CN(C)C2)cc1 (some centres unmarked)")
6.80
>>> obs_value("CC(C)c1ccc([C@](O)(c2cncc(CCc3ccccc3CO)c2)C2(C)CN(C)C2)cc1")
7.07

Switching to the query record.
Q. So what's the measured pIC50 for this one? `CC(C)c1ccc([C@](O)(c2cncc(-c3noc(CN4CCN(C)C4=O)n3)c2)C2(C)CN(C)C2)cc1`
A. 6.57

----------
This listing pairs compounds with measured pIC50.
Biological target: human CCR6 (Homo sapiens, UniProt P51684)
Construct: expressed in transfected cells; host or cells: HEK-293
Sequence (P51684 1-374): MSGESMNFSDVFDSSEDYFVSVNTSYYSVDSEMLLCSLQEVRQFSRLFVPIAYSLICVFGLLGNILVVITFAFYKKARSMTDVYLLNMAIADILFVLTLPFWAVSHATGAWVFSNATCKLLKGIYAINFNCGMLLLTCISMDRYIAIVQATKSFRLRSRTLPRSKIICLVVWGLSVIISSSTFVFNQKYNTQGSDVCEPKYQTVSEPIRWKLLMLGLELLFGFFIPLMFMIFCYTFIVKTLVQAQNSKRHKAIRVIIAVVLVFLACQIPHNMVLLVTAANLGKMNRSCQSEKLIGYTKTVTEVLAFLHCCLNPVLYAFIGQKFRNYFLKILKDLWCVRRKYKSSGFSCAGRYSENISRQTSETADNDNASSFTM
Experiment: FLIPR assay (inhibition of CCL20-induced calcium signal)
Type: cell-based
Settings: HEK-293 cells expressing human CCR6; mean values where determined several times; read-out: FLIPR IC50
The quantity pIC50 is defined as the negative base-10 logarithm of the molar concentration.

Use the examples below as a reference point.
>>> obs_value("Cc1nc(C(C)(O)C#Cc2cncc([C@@](O)(c3ccc(C(C)C)cc3)C3(C)CN(C)C3)c2)cs1 (stereo partly shown)")
7.21
>>> obs_value("CC(C)c1ccc([C@](O)(c2cncc(-c3noc(CN4CCCC4=O)n3)c2)C2(C)CN(C)C2)cc1")
6.59
>>> obs_value("COc1nccc(C(C)(O)C#Cc2cncc([C@@](O)(c3ccc(C(C)C)cc3)C3(C)CN(C)C3)c2)n1 (single isomer, unassigned) [Example 623]")
7.35

Lab note: next compound to report on.
Q. # input compound: `CC(C)c1ccc([C@](O)(c2cncc(OCCO)c2)C2(C)CN(C)C2)cc1` ; wanted: its pIC50
A. 6.49

----------
Target: human CCR6 (Homo sapiens)
Construct: expressed in transfected cells; host or cells: HEK-293
Assay: FLIPR assay (inhibition of CCL20-induced calcium signal)
Type: cell-based
Conditions: HEK-293 cells expressing human CCR6; mean values where determined several times; read-out: FLIPR IC50
observation_type: IC50
Please answer in the form of a number followed by its unit of measurement.

Examples from the recorded data:
>>> obs_value("CC(C)c1ccc([C@](O)(c2cncc(N3CCCCC3)c2)C2(C)CN(C)C2)cc1")
"39.2 nM"
>>> obs_value("CC(C)c1ccc([C@](O)(c2cncc(-c3noc(C4CC(=O)N(Cc5ccco5)C4)n3)c2)C2(C)CN(C)C2)cc1 (stereo partly shown)")
"29 nM"
>>> obs_value("CC(C)c1ccc([C@](O)(c2cncc(-c3nc(C4(C)CCOCC4)no3)c2)C2(C)CN(C)C2)cc1")
"46.2 nM"
>>> obs_value("CC(=O)N1CCC(c2nc(-c3cncc([C@@](O)(c4ccc(CC(F)(F)F)cc4)C4(C)CN(C)C4)c3)no2)CC1")
"267 nM"

Q. Can you look up the measured IC50 of `CCc1ccc([C@](O)(c2cncc(-c3noc(C(C)(C)O)n3)c2)C2(C)CN(C)C2)cc1` for me?
A. 118 nM

Q. Fill in: IC50 of `CC(C)c1ccc([C@](O)(c2cncc(-c3noc(C(C)(C)O)n3)c2)C2(F)CN(C)C2)cc1` is ___
A. 44.8 nM

Q. Give the measured IC50 of CC(C)c1ccc([C@](O)(c2cnnc(N3CC(C4CC4)CC3=O)c2)C2(C)CN(C)C2)cc1 (stereo partly shown) .
A. 53.6 nM

----------
Entries and their measured IC50 follow.
Molecular target: human CCR6 (Homo sapiens, UniProt P51684)
Construct: expressed in transfected cells; host or cells: HEK-293
Experiment: FLIPR assay (inhibition of CCL20-induced calcium signal)
Assay type: cell-based
Settings: HEK-293 cells expressing human CCR6; mean values where determined several times; read-out: FLIPR IC50
Lab book: enter the figure in nM, no units written.

Record excerpt, results attached:
>>> obs_value("CC(C)Oc1ccc([C@](O)(c2cncc(-c3noc(C(C)(C)O)n3)c2)C2(C)CN(C)C2)cc1")
2450
>>> obs_value("CC(C)c1ccc([C@](O)(c2cncc(-c3nc(C4(O)CCOCC4)no3)c2)C2(C)CN(C)C2)cc1")
168
>>> obs_value("CC(C)CN1CC(c2nc(-c3cncc([C@@](O)(c4ccc(C(C)C)cc4)C4(C)CN(C)C4)c3)no2)CC1=O (stereo partly shown)")
40.3

Attention now turns to another entry.
Q. Recall the recorded IC50 for `CCCCc1ccc([C@](O)(c2cncc(-c3noc(C(C)(C)O)n3)c2)C2(C)CN(C)C2)cc1` with human CCR6 (Homo sapiens, UniProt P51684) and state it.
A. 65.8

----------
// reported IC50 for each item listed
Molecular target: human CCR6 (Homo sapiens)
Construct: expressed in transfected cells; host or cells: HEK-293
Assay: FLIPR assay (inhibition of CCL20-induced calcium signal)
Type: cell-based
Conditions: FLIPR IC50 (nM), HEK-293 cells expressing human CCR6; mean values where determined several times
Number only, in nM; omit the unit.

In the examples that follow, each entry is paired with its recorded IC50.
>>> obs_value("CCc1ccc([C@](O)(c2cncc(N3CC4CC(C3)O4)c2)C2(C)CN(C)C2)cc1")
211
>>> obs_value("CN1CC(C)(C(O)(c2ccc(C(C)(C)C)cc2)c2cncc(N3CCCC3)c2)C1 (stereo not drawn)")
27.7

Then this molecule:
Q. Which IC50 is listed for `CC(C)c1ccc([C@](O)(c2cncc(N3C4CCC3CC4)c2)C2(C)CN(C)C2)cc1` ?
A. 284

// provenance: patent US12617773B2
